Cited source: patent US20230391760A1

Target: UniProtKB P43220
Sequence (P43220 24-463, species assumed): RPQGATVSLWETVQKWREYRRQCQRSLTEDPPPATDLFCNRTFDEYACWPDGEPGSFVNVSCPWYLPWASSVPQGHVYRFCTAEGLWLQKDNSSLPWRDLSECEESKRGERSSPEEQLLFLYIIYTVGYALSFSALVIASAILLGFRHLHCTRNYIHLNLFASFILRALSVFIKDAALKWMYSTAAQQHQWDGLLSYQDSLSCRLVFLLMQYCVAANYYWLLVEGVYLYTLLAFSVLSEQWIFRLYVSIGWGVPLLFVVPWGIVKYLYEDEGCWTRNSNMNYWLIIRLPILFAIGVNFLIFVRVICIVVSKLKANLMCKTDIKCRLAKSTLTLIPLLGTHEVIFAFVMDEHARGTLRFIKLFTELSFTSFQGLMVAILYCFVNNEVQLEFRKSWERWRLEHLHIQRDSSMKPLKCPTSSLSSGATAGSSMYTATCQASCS
Experiment: GLP-1R agonist cAMP stimulation assay (HEK293/GLP1R/CRE-LUC cells, cAMP dynamic 2 Kit)
Details: HEK293/CRE-Luc cell line stably expressing the GLP-1 Receptor, 30 min at 37° C.
For each entry below, report its pEC50 value.
In simple prose, pEC50 is minus the logarithm base ten of a concentration in moles per litre.

## Input What does the record list as pEC50 for CC1(c2ccccc2)Oc2cccc(C3CCN(Cc4nc5cc(-c6nnc(C(F)(F)F)[nH]6)ccc5n4C[C@@H]4CCO4)CC3)c2O1 (stereo partly drawn) [Compound 405a] ?
## Output 9.28

## Input Also need CC1(c2ccc(Cl)cn2)Oc2cccc(C3CCN(Cc4nc5cc(-c6nnc(C(F)(F)F)[nH]6)ncc5n4C[C@@H]4CCCO4)CC3)c2O1 (stereo partly drawn) [Compound 425a] , thanks.
## Output 9.89

## Input Also need CC1(c2ccc(Cl)cn2)Oc2cccc(C3CCN(Cc4nc5cc(-c6nnc(C(F)(F)F)[nH]6)ccc5n4CC4(C#N)CC4)CC3)c2O1 (stereo not drawn) , thanks.
## Output 9.85

## Input Also need C[C@]1(c2ccc(Cl)cc2F)Oc2cccc(C3CCN(Cc4nc5cc(-c6nnc(C7CC7)[nH]6)cnc5n4C[C@@H]4CCO4)CC3)c2O1 [Compound 282a] , thanks.
## Output 9.35

## Input Also need C[C@]1(c2ccc(Cl)cc2F)Oc2cccc(C3CCN(Cc4nc5cc(-c6nnc(C(F)(F)F)[nH]6)nnc5n4C[C@H]4CCOC4)CC3)c2O1 [Compound 475a] , thanks.
## Output 9.39

## Input Also need C[C@]1(c2ccc(Cl)cn2)Oc2cccc(C3CCN(Cc4nc5cc(-c6nnc(C#N)[nH]6)ncc5n4C[C@@H]4CCO4)CC3)c2O1 [Compound 481a] , thanks.
## Output 11.32
